System: HepG2-CANX-COX4
test summary: lowest phenotypically active concentration; higher = less potent
applied conditions: treatment time: 24 h
Here, each record is paired with measured lowest phenotypically active concentration data.
assay endpoint: lowest phenotypically active concentration

- compound: "CC(C)NCCCn1c(Sc2cc3c(cc2I)OCO3)nc2c(N)ncnc21"
  meas value: "≤ 0.3 µM"
- compound: "C[C@@H](Oc1cc(-n2cnc3ccc(CN4CCN(C)CC4)cc32)sc1C(N)=O)c1ccccc1C(F)(F)F"
  meas value: "≤ 0.3 µM"
- compound: "Nc1ccn([C@@H]2O[C@H](CO)[C@@H](O)C2(F)F)c(=O)n1 [gemcitabine]"
  meas value: "≤ 0.3 µM"
- compound: "CC(=O)O[C@@]12CO[C@@H]1C[C@H](O)[C@@]1(C)C(=O)[C@H](O)C3=C(C)[C@@H](OC(=O)[C@H](O)[C@@H](NC(=O)OC(C)(C)C)c4ccccc4)C[C@](O)([C@@H](OC(=O)c4ccccc4)[C@H]21)C3(C)C [Docetaxel]"
  meas value: "≤ 0.3 µM"

FYI, the data here is from the supplement of paper PMC7411054.
